Test system: Liver
Experiment: Metabolic stability in mouse liver microsomes assessed as parent compound remaining after 10 mins
Type: ADME, microsome
Conditions: microsomes, 10 min
The molecules listed here are annotated with their Stability.
Unit % implied. Number only.

molecule: O=C(CC1(c2ccc(F)cc2)C2CC3CC1CC(C2)C3O)N1CC(O)C1 (single isomer, unassigned; enantiomer 2)
Stability (%): 82

molecule: O=C(CC1(c2ccccc2)C2CC3CC1CC(C2)C3O)N1CC(O)C1 (stereo in doubt; form 1)
Stability (%): 65

molecule: O=C(CC1(c2ccccc2)C2CC3CC1CC(C2)C3O)N1CC(O)C1 (stereo in doubt; form 2)
Stability (%): 80

For Liver, give the measured Stability of the entry O=C(CC1(c2ccc(F)cc2)C2CC3CC1CC(C2)C3O)N1CC(O)C1 (stereo in doubt) 78
